Molecular target: aldose reductase (Bos taurus)
Construct: partially purified aldose reductase enzyme obtained from calf lens; from tissue; host or cells: calf lens
Assay: inhibition of aldose reductase enzyme activity (procedure of S. Hayman et al., modified by K. Sestanj et al.)
Format: biochemical
Settings: 10^-4 M; partially purified enzyme from calf lens
Parameter measured: inhibition at 100 µM (%)
Record the value in %, omitting the unit from your answer.

Below: 3 molecules and their reported inhibition at 100 µM.
>>> observed_result("O=C(O)Cn1c(=O)n(Cc2ccc(Cl)c(Cl)c2)c2cc(Cl)c(Cl)cc21")
82
>>> observed_result("O=C(O)Cn1c(=O)n(Cc2cccc3ccccc23)c2ccccc21")
92
>>> observed_result("O=C(O)Cn1c(=O)n(Cc2ccccc2)c2ccccc21")
84

Return inhibition at 100 µM for the following molecule: O=C(O)Cn1c(=O)n(Cc2ccc(Cl)c(Cl)c2)c2ccccc21
89

---

Molecular target: aldose reductase (Bos taurus)
Construct: partially purified aldose reductase enzyme obtained from calf lens; from tissue; host or cells: calf lens
Assay: inhibition of aldose reductase enzyme activity (procedure of S. Hayman et al., modified by K. Sestanj et al.)
Format: biochemical
Conditions: 10^-4 M; partially purified enzyme from calf lens
Parameter measured: inhibition at 100 µM (%)
Provide only the numeric value, understood in %.

Consider the reported inhibition at 100 µM for these molecules:
>>> observed_result("O=C(O)Cn1c(=O)n(Cc2ccccc2)c2cc(Cl)c(Cl)cc21")
89
>>> observed_result("O=C(O)Cn1c(=O)n(Cc2ccc3ccccc3c2)c2ccccc21")
86
>>> observed_result("CC(C(=O)O)n1c(=O)n(Cc2ccc(Cl)c(Cl)c2)c2ccccc21 (stereo not drawn)")
91

Give inhibition at 100 µM for O=C(O)Cn1c(=O)n(Cc2ccc(Cl)cc2Cl)c2ccccc21
87

// fetch inhibition at 100 µM given entry O=C(O)CCn1c(=O)n(Cc2ccc(Cl)c(Cl)c2)c2ccccc21
90

Hello, please tell me recorded inhibition at 100 µM for this one: O=C(O)Cn1c(=O)n(Cc2ccc(Cl)cc2)c2ccccc21
88

Look up inhibition at 100 µM of Cc1ccc(Cn2c(=O)n(CC(=O)O)c3ccccc32)cc1 and report it.
86

Read off the recorded inhibition at 100 µM for O=C(O)Cn1c(=O)n(CC(=O)c2ccc(Cl)cc2Cl)c2ccccc21
71

Check the records and state inhibition at 100 µM for COc1ccc(Cn2c(=O)n(CC(=O)O)c3ccccc32)cc1
88

Each recorded value in this set is attributed to patent US4209527A.
